system: U373 MG; experiment: Growth inhibition of empty vector transfected human U373 cells after 7 days by MTT assay; type: functional, U-373MG ATCC; details: 168 h
Parameter GI50: see the listing below.
experimental.endpoint: GI50

compound | value.reported
NC(=O)c1ncn2c(=O)n(CC(=O)O)nnc12 | 69.5 µM
C#CC/N=N/Nc1[nH]cnc1C(N)=O | 32 µM
COC(=O)C/N=N/Nc1[nH]cnc1C(N)=O | 32.6 µM
NC(=O)c1ncn2c(=O)n(CCO)nnc12 | 288 µM
NC(=O)Cn1nnc2c(C(N)=O)ncn2c1=O | 65.4 µM
CCOC(=O)C/N=N/Nc1[nH]cnc1C(N)=O | 30.3 µM
CCOC(=O)C=[N+]=[N-] | > 800 µM
N#CC/N=N/Nc1[nH]cnc1C(N)=O | 106 µM
C=CCn1nnc2c(C(N)=O)ncn2c1=O | 141 µM
COC(=O)Cn1nnc2c(C(N)=O)ncn2c1=O | 32.1 µM
NC(=O)c1ncn2c(=O)n(CCCl)nnc12 [MITOZOLOMIDE] | 22 µM
NC(=O)CCn1nnc2c(C(N)=O)ncn2c1=O | 138 µM
